EXPERIMENTAL SYSTEM: 5-Hydroxytryptamine (Serotonin) Receptor 1B (Homo sapiens, UniProt P28222)
Sequence (P28222 whole entry): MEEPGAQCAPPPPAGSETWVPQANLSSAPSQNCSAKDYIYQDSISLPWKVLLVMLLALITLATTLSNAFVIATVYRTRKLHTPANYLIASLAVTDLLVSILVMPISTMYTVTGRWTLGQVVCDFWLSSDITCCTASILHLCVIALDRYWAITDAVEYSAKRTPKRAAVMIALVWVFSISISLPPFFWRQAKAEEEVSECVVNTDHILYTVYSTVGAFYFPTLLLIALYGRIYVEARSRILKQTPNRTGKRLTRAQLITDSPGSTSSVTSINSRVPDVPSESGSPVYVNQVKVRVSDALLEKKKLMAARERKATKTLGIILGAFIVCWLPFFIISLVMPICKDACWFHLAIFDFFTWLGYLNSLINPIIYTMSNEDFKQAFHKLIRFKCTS
METHOD DESCRIPTION: 5-HTR1B activity assay (Agonist/Antagonist)
RECORDED ENDPOINT: EC50 (nM)
// units = nM; emit number, no label

Challenge: Dear colleague, I am looking for the recorded EC50 of the following molecule: CNC(C)C(=O)c1ccc2ccccn12 (stereo not shown) [Structure XLX]
Response given: 1130
